Target: T1, human interleukin 13 receptor subunit alpha 2 (IL-13RA2) (human, UniProt Q14627 27-380)
T1 construct: whole, on cells; also called IL-13Rα2; CD213A2
T1 sequence (looked up): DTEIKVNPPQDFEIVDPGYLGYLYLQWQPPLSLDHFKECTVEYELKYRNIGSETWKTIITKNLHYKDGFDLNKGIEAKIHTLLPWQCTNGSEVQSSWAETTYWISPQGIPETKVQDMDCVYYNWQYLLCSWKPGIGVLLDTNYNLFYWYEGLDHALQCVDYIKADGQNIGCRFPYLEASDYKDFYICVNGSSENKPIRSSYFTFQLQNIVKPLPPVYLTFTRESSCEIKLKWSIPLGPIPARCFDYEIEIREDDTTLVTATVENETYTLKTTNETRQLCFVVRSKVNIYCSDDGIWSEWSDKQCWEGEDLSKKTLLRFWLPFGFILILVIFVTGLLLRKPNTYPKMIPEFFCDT
Experiment: FACS on A375 cells
Procedure: A375 cells that endogenously expressed IL-13RA2, were harvested from flasks. 100 μl of 1×10⁶ cells/ml of cells were incubated with primary humanized antibodies in 4-fold serial dilutions starting from 200 nM to 0.003 nM for 30 minutes on ice. After being washed with 200 μl of FACS buffer twice, cells were incubated with secondary antibody for 30 minutes on ice. Cells were washed with 200 μl of FACS buffer twice and analyzed by FACS.
reported property: Top (MFI)
Return type: number; implicit unit MFI.

Some binders with known Top (MFI) results, for comparison:
INSERT INTO results (binder, reading) VALUES
  ('61H8C1 H4L4 hIgG1 (antibody, V domains shown, humanized, hIgG1) VH: QVQLVQSGAEVAKPGASVKLSCKASGYTFTSYWTQWIKQAPGQGLEGIGAIYPGDDDTSYNQKFKGKATLTADKSTSTAYMQLSSLRSEDTAVYYCARGATLLRPFPYWGQGTLVTVSS VL: DIVMTQSPSSLSTSVGDRVTITCKASQDVSTAVAWYQQKPGKSPKLLIYSASYRYTGVPDRFTGSGSGTDFTFTISSVQPEDFATYSCQQHYSIPPTFGGGTKLEIK', 21600),
  ('72B4H4 H1L4 hIgG1 (antibody, V domains shown, humanized, hIgG1) VH: QVQLVQSGAEVKKPGASVKVSCKASGYTFTNYWMNWVRQAPGQGLEWMGRIDAYAGETHYNQKFKDRVTMTRDTSTSTVYMELSSLRSEDTAVYYCARGYGDAYGMDHWGQGTLVTVSS VL: DIVLTQSPSSLSASVGDRATITCRASESVDNYGISFMNWFQQKPGKPPKLLIYAASRQGSGDPARFSGSGSGTDFTLTISSLQPEDFATYFCQQSKEVPWTFGGGTKLEIK', 9040);

// moving on: another record for Top (MFI)
Task item: Which Top (MFI) reading was recorded for the binder 57F8H3F1 H3L3 hIgG1 (antibody, V domains shown, humanized, hIgG1) VH: QVQLVQSGAEVVKPGASVKLSCKASGYTFTNYWMNWVKQAPGQGLEWIGRIDAYETETHYNQKFRDRATLTVDKSTSTVYMELSSLRSEDTAVYYCARGYGHYYGVDYWGQGTLVTVSS VL: DIQLTQSPSSLSASVGDRVTITCRASENVGNFGISFVNWFQQKPGKAPKLLIYAASNLGSGDPARFSGSGSGTDFTLTISSLQPEDFATYFCQQSKGVPWTFGGGTKVEIK ?
Reply: 7610

The measured values listed here are drawn from patent US20250163164A1.
